These measurements were taken from patent US20220306647A1.

# STUDY TARGET: HBV core protein (C-terminal truncated core protein, 149 amino acids of the N-terminal assembly domain, BODIPY-FL labelled) (UniProt P03146)
# Construct: fused on or other part: A single cysteine added after residue 149, at position 150; It carries the BODIPY-FL maleimide label
# Sequence (P03146 whole entry, the tested form may be a part): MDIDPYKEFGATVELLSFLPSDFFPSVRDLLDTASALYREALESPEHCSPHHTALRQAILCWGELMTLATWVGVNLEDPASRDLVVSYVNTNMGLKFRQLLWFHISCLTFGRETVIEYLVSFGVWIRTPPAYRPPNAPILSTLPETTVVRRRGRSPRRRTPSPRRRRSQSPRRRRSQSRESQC
# TEST DESCRIPTION: Biochemical capsid assembly assay (fluorescence quenching)
# MEASUREMENT SETUP: assembly started with NaCl, fluorescence read after 6 min, read-out: Assembly activity
MEASURED PROPERTY: IC50

Use these answered entries as a reference point.
IC50 reported for this compound CN1C(=O)c2c3c(nn2CCC12CC2)CCN(C(=O)c1cc2cc(F)c(Cl)cc2[nH]1)C3 : < 5 µM

IC50 reported for this compound CN(C(=O)c1cnn2c1CN(C(=O)c1cc3ccccc3[nH]1)CC2)C1(COc2cccc(C(=O)O)c2)CC1 : < 5 µM

IC50 reported for this compound CN(C(=O)c1[nH]nc2c1CN(C(=O)c1cc3ccccc3[nH]1)CC2)C1(c2ncc(C(=O)O)cn2)CC1 : 5 to 10 µM

Others:
IC50 reported for this compound CN1C(=O)c2c3c(nn2CC12CC2)CCN(C(=O)c1cc2ccccc2[nH]1)C3 : < 5 µM
